What INH was measured for each of the following?
# TARGET OF ASSAY: Cytochrome P450 1A2 (Homo sapiens, UniProt P05177)
# Sequence (P05177 whole entry): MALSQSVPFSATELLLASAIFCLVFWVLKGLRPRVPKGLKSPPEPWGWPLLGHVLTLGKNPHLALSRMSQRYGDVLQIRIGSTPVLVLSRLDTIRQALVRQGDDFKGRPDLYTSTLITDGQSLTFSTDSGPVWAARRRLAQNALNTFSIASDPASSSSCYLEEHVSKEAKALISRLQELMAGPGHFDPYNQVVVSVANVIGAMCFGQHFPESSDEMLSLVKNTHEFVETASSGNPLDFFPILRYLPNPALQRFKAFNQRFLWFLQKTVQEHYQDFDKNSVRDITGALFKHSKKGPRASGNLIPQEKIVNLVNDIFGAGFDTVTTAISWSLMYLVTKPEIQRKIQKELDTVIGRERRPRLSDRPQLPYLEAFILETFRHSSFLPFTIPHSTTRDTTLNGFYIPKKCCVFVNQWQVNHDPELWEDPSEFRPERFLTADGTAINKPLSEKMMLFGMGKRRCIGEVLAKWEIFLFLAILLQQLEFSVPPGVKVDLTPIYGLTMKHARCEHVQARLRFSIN
# ASSAY COMMENT: Inhibition of […] CYP1A2 expressed in Escherichia coli DH5alpha cell membranes coexpressing human NADPH-cytochrome P450 reductase using 7-Ethoxyresorufin as substrate preincubated for 3 mins followed by NADPH addition measured after 10 mins by EROD assay
# Assay type: ADME
Field format: number, assumed µM, no unit text.

Entry under review: COc1cc(-c2oc3cc(O)cc(O)c3c(=O)c2O)ccc1O [ISORHAMNETIN] . Reported INH?
137

Entry under review: O=c1cc(-c2ccc(O)c(O)c2)oc2cc(O)cc(O)c12 [LUTEOLIN] . Reported INH?
8.9

Entry under review: O=c1c(O)c(-c2ccc(O)c(O)c2)oc2cc(O)cc(O)c12 [QUERCETIN] . Reported INH?
418

Entry under review: O=c1cc(-c2ccccc2)oc2cc(O)cc(O)c12 [CHRYSIN] . Reported INH?
0.42

====

# TARGET OF ASSAY: Cytochrome P450 1A1 (Homo sapiens)
# ASSAY COMMENT: Inhibition of human CYP1A1 by EROD assay
# Format: ADME
PROPERTY MEASURED: pIC50
Lab note: report pIC50 as minus log10 of the concentration in molar units, number only.

Entry under review: COc1ccc2c(c(OC)cc3c(=O)cc(-c4ccc(F)cc4)oc32)c1OC . Reported pIC50?
9.00

====

# TARGET OF ASSAY: Cytochrome P450 1B1 (Homo sapiens)
# ASSAY COMMENT: Inhibition of human CYP1B1 expressed in Escherichia coli DH5alpha cell membranes coexpressing human NADPH-cytochrome P450 reductase using 7-Ethoxyresorufin as substrate by EROD assay
PROPERTY MEASURED: pIC50
Lab note: report pIC50 as minus log10 of the concentration in molar units, number only.

Entry under review: COc1ccc2cc3[n+](cc2c1OC)CCc1cc2c(cc1-3)OCO2 . Reported pIC50?
7.03

====

# TARGET OF ASSAY: Cytochrome P450 1B1 (Homo sapiens)
# ASSAY COMMENT: Inhibition of human CYP1B1 using 7-Ethoxyresorufin as substrate after 30 mins in presence of NADP+ by EROD assay
PROPERTY MEASURED: IC50 (nM)
Field format: number, assumed nM, no unit text.

Entry under review: COc1ccc(-c2cc(=O)c3cc(OC)c4cccc(OC)c4c3[nH]2)cc1 . Reported IC50?
4.1

Entry under review: COc1cc2c(=O)cc(-c3ccc(F)cc3)[nH]c2c2c(OC)cccc12 . Reported IC50?
3.9

Entry under review: COc1cc2c(=O)cc(-c3cccc(Br)c3)[nH]c2c2c(OC)cccc12 . Reported IC50?
3.6

====

# TARGET OF ASSAY: Cytochrome P450 1B1 (Homo sapiens, UniProt Q16678)
# ASSAY COMMENT: Inhibition of CYP1B1 in human HepG2 cells
# Format: cell-based
PROPERTY MEASURED: IC50 (µM)
Field format: number, assumed µM, no unit text.

Entry under review: COc1ccc2cc3[n+](cc2c1OC)CCc1cc2c(cc1-3)OCO2 . Reported IC50?
2.5

====

What INH was measured for each of the following?
# TARGET OF ASSAY: Cytochrome P450 1B1 (Homo sapiens)
# ASSAY COMMENT: Inhibition of […] CYP1B1 expressed in Escherichia coli DH5alpha cell membranes coexpressing human NADPH-cytochrome P450 reductase using 7-Ethoxyresorufin as substrate preincubated for 3 mins followed by NADPH addition measured after 10 mins by EROD assay
Field format: number, assumed µM, no unit text.

What is its INH for Cytochrome P450 1B1 (Homo sapiens)? Entry: O=c1cc(-c2ccccc2)oc2cc(O)cc(O)c12
0.28

What is its INH for Cytochrome P450 1B1 (Homo sapiens)? Entry: O=c1cc(-c2ccc(O)c(O)c2)oc2cc(O)cc(O)c12
0.36

What is its INH for Cytochrome P450 1B1 (Homo sapiens)? Entry: O=c1c(O)c(-c2ccc(O)c(O)c2)oc2cc(O)cc(O)c12
23

What is its INH for Cytochrome P450 1B1 (Homo sapiens)? Entry: COc1cc(-c2oc3cc(O)cc(O)c3c(=O)c2O)ccc1O
30.1

====

# TARGET OF ASSAY: Cytochrome P450 1A1 (Homo sapiens, UniProt P04798)
# Sequence (P04798 whole entry): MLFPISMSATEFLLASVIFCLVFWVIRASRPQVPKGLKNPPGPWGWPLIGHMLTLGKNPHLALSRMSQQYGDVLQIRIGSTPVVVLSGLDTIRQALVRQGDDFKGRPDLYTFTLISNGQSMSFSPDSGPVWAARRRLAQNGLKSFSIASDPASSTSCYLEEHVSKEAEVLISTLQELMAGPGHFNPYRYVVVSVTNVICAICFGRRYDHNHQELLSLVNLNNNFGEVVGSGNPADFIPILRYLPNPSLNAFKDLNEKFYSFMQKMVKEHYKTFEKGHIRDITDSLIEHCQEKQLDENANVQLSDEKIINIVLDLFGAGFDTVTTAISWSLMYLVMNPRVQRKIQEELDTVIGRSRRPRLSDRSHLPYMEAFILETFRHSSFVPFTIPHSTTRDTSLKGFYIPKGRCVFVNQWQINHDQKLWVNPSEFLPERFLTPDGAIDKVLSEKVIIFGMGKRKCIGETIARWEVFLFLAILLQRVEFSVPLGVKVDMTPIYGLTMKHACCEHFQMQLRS
# ASSAY COMMENT: Inhibition of […] CYP1A1 expressed in Escherichia coli DH5alpha cell membranes coexpressing human NADPH-cytochrome P450 reductase using 7-Ethoxyresorufin as substrate preincubated for 3 mins followed by NADPH addition measured after 10 mins by EROD assay
# Type: ADME
PROPERTY MEASURED: INH (µM)
Field format: number, assumed µM, no unit text.

Entry under review: O=c1cc(-c2ccc(O)c(O)c2)oc2cc(O)cc(O)c12 . Reported INH?
1.2

Entry under review: COc1cc(-c2oc3cc(O)cc(O)c3c(=O)c2O)ccc1O . Reported INH?
25

Entry under review: O=c1c(O)c(-c2ccc(O)c(O)c2)oc2cc(O)cc(O)c12 . Reported INH?
77

Entry under review: O=c1cc(-c2ccccc2)oc2cc(O)cc(O)c12 . Reported INH?
6.2

Entry under review: O=c1c(O)c(-c2ccc(O)cc2)oc2cc(O)cc(O)c12 . Reported INH?
52

Entry under review: O=c1cc(-c2ccc(O)cc2)oc2cc(O)cc(O)c12 . Reported INH?
4.1

====

# TARGET OF ASSAY: Cytochrome P450 1A1 (Homo sapiens)
# ASSAY COMMENT: Inhibition of human CYP1A1 using ethoxyresorufin as substrate by EROD assay
# Assay type: ADME
PROPERTY MEASURED: pIC50
Lab note: report pIC50 as minus log10 of the concentration in molar units, number only.

Entry under review: Oc1ccc(/C=C/c2cc(O)cc(O)c2)cc1 . Reported pIC50?
4.64

====

# TARGET OF ASSAY: UniProtKB Q16678
# Sequence (Q16678 whole entry): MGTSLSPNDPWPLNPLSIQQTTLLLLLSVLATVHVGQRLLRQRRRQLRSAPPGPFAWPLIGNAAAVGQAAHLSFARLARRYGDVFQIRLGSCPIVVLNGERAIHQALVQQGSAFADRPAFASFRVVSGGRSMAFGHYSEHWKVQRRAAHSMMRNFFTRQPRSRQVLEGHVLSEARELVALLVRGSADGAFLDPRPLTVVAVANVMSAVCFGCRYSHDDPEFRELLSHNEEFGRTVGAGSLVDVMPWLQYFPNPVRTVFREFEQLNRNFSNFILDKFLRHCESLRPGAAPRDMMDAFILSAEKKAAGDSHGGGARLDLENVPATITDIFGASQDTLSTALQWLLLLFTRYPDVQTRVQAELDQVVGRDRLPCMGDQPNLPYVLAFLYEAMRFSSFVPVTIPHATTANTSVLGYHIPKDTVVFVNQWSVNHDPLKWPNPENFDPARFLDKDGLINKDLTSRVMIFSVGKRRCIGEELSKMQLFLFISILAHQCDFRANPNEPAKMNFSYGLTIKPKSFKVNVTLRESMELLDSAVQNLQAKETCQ
# ASSAY COMMENT: Inhibition of CYP1B1 in human MCF7 cells assessed as reduction in DMBA-induced CYP1B1-mediated EROD activity by EROD assay
# Format: cell-based
PROPERTY MEASURED: IC50 (nM)
Field format: number, assumed nM, no unit text.

Entry under review: C[C@]12CCCCC1=CC[C@@H]1[C@@H]2CC[C@]2(C)C(=O)[C@H](F)C[C@@H]12 . Reported IC50?
500
